Numbers sourced from patent US20180273595A1.

Molecular target: recombinant His-tagged full-length ERG (UniProt P11308)
Sequence (P11308 whole entry): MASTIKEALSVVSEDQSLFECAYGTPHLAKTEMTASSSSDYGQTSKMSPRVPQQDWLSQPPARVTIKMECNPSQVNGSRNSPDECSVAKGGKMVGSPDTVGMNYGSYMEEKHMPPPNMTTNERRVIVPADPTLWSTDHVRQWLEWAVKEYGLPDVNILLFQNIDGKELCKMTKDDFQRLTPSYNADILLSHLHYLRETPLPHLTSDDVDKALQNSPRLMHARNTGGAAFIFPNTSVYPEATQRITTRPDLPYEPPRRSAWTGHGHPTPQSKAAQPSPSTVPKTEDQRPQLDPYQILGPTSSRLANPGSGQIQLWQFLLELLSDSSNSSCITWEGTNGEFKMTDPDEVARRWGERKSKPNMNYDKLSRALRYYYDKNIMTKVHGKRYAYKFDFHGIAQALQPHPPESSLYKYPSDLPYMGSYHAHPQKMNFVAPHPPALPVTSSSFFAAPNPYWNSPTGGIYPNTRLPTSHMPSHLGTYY
Assay: OctetRED; Kd table of synthetic peptides on ERG
Listed here: items and their measured Kd.

Substance | Kd
7-mer LPPYLFT capped at the C-terminus only (LPPYLFT-NH2) (peptide) | > 100 µM

Query block: Name the reported Kd value associated with the substance EIP1 capped at both termini (Ac-LPPYLFT-NH2) (peptide)
Result block: > 100 µM
